# System: HCT116/VM46
# protocolNotes: cells
# Type: cell-based, human
# details: read-out: IC50 against resistant HCT116 cell line
# Description: Compounds were tested for their cell growth inhibition of L1210 (ATCC no. CCL-219, mouse lymphocytic leukemia), HCT116 (ATCC no. CCL-247, human colorectal carcinoma), and HCT116/VM46 (a vinblastine-resistant strain of HCT116) cells in culture. A population of cells (>1×10^6 cells/mL as determined with a hemocytometer) was diluted with Dulbecco's Modified Eagle Medium (DMEM, Gibco) containing 10% fetal bovine serum (FBS, Gibco) to give a final concentration of 30,000 cells/mL. […]
measuredParameter: IC50 (nM)
Give the value in nM but do not write nM after it.

// query Returns the measured IC50 for the input molecule. Input: CCC1(NC(=O)c2ccc3c(c2)CCCO3)CC2CN(CCc3c([nH]c4ccccc34)C(C(=O)OC)(c3cc4c(cc3OC)N(C)C3C(O)(C(=O)OC)C(OC(C)=O)C5(CC)C=CCN6CCC43C65)C2)C1 (stereo not shown)
// result 1.8

###

Here the recorded pIC50 is given for each entry.
# Tested on: HCT116
# protocolNotes: cells
# Type: cell-based, human
# details: Table 6; read-out: IC50 HCT116
# Protocol: A population of cells (>1×10^6 cells/mL as determined with a hemocytometer) was diluted with Dulbecco's Modified Eagle Medium (DMEM, Gibco) containing 10% fetal bovine serum (FBS, Gibco) to give a final concentration of 30,000 cells/mL. To each well of a 96-well plate (Corning® Costar®) was added 100 μL of the cell media solution with a multichannel pipet. The test compounds were then added to the plate as follows: test compounds were diluted in DMSO to a concentration of 1 mM. […]
The scale used: pIC50 is minus the common logarithm of the concentration in molar units.

Some compounds with known pIC50 results, for comparison:
compound	pIC50
CCC1(NC(=O)c2ccc3c(c2)OCCO3)CC2CN(CCc3c([nH]c4ccccc34)C(C(=O)OC)(c3cc4c(cc3OC)N(C)C3C(O)(C(=O)OC)C(OC(C)=O)C5(CC)C=CCN6CCC43C65)C2)C1 (stereo not shown)	9.30
CC[C@]1(NC(=O)c2ccc3c(c2)CCN3C(=O)OC(C)(C)C)C[C@H]2CN(CCc3c([nH]c4ccccc34)[C@@](C(=O)OC)(c3cc4c(cc3OC)N(C)[C@H]3[C@@](O)(C(=O)OC)[C@H](OC(C)=O)[C@]5(CC)C=CCN6CC[C@]43[C@@H]65)C2)C1	7.82

// query Fill in the recorded pIC50 for this compound, with HCT116 as test system: `CC[C@]1(NC(=O)c2ccc3ncsc3c2)C[C@H]2CN(CCc3c([nH]c4ccccc34)[C@@](C(=O)OC)(c3cc4c(cc3OC)N(C)[C@H]3[C@@](O)(C(=O)OC)[C@H](OC(C)=O)[C@]5(CC)C=CCN6CC[C@]43[C@@H]65)C2)C1`
// result 9.22

// query What do you get for CCC1(NC(=O)c2cnc3ccccc3c2)CC2CN(CCc3c([nH]c4ccccc34)C(C(=O)OC)(c3cc4c(cc3OC)N(C)C3C(O)(C(=O)OC)C(OC(C)=O)C5(CC)C=CCN6CCC43C65)C2)C1 (stereo not shown) ?
// result 9.22

###

# Tested on: HCT116
# protocolNotes: cells
# Type: cell-based, human
# details: Table 4; read-out: IC50 HCT116
Would you mind sorting the entries by IC50 according to these classes? L = under 5 nM, M = from 5 nM up to 10 nM, H = 10 nM and over

Use the examples below as a reference point.
compound	assignedLabel
CCC1(NC(=O)c2cccc3ccccc23)CC2CN(CCc3c([nH]c4ccccc34)C(C(=O)OC)(c3cc4c(cc3OC)N(C)C3C(O)(C(=O)OC)C(OC(C)=O)C5(CC)C=CCN6CCC43C65)C2)C1 (centres unmarked) [Compound 115]	H
CCC1(NC(=O)c2ccc3ccccc3c2)CC2CN(CCc3c([nH]c4ccccc34)C(C(=O)OC)(c3cc4c(cc3OC)N(C)C3C(O)(C(=O)OC)C(OC(C)=O)C5(CC)C=CCN6CCC43C65)C2)C1 (centres unmarked) [Compound 116]	L
CCC1(NC(=O)C2Cc3ccccc3C2)CC2CN(CCc3c([nH]c4ccccc34)C(C(=O)OC)(c3cc4c(cc3OC)N(C)C3C(O)(C(=O)OC)C(OC(C)=O)C5(CC)C=CCN6CCC43C65)C2)C1 (centres unmarked) [Compound 125]	H

// query Any idea which band CCC1(NC(=O)c2ccc3cccc(OC)c3c2)CC2CN(CCc3c([nH]c4ccccc34)C(C(=O)OC)(c3cc4c(cc3OC)N(C)C3C(O)(C(=O)OC)C(OC(C)=O)C5(CC)C=CCN6CCC43C65)C2)C1 (centres unmarked) [Compound 120] is in?
// result H

// query Try the compound CCC1(NC(=O)c2ccc3cc(NC(=O)OC(C)(C)C)ccc3c2)CC2CN(CCc3c([nH]c4ccccc34)C(C(=O)OC)(c3cc4c(cc3OC)N(C)C3C(O)(C(=O)OC)C(OC(C)=O)C5(CC)C=CCN6CCC43C65)C2)C1 (centres unmarked) [Compound 118]
// result M

// query For CCC1(NC(=O)c2ccc3cc(OC)ccc3c2)CC2CN(CCc3c([nH]c4ccccc34)C(C(=O)OC)(c3cc4c(cc3OC)N(C)C3C(O)(C(=O)OC)C(OC(C)=O)C5(CC)C=CCN6CCC43C65)C2)C1 (centres unmarked) [Compound 119] then?
// result L

// query Then CCC1(NC(=O)C2CCc3ccccc3C2)CC2CN(CCc3c([nH]c4ccccc34)C(C(=O)OC)(c3cc4c(cc3OC)N(C)C3C(O)(C(=O)OC)C(OC(C)=O)C5(CC)C=CCN6CCC43C65)C2)C1 (mixture of isomers) [Compound 122] ?
// result H

// query // query: CCC1(NC(=O)c2ccc3cc(N)ccc3c2)CC2CN(CCc3c([nH]c4ccccc34)C(C(=O)OC)(c3cc4c(cc3OC)N(C)C3C(O)(C(=O)OC)C(OC(C)=O)C5(CC)C=CCN6CCC43C65)C2)C1 (centres unmarked) [Compound 117]
// result L

// query Thanks! And CCC1(NC(=O)c2ccc3c(c2)CCC3)CC2CN(CCc3c([nH]c4ccccc34)C(C(=O)OC)(c3cc4c(cc3OC)N(C)C3C(O)(C(=O)OC)C(OC(C)=O)C5(CC)C=CCN6CCC43C65)C2)C1 (centres unmarked) [Compound 124] ?
// result M

// query Another compound to check: CCC1(NC(=O)c2ccc3c(c2)C(C)(C)CCC3(C)C)CC2CN(CCc3c([nH]c4ccccc34)C(C(=O)OC)(c3cc4c(cc3OC)N(C)C3C(O)(C(=O)OC)C(OC(C)=O)C5(CC)C=CCN6CCC43C65)C2)C1 (centres unmarked) [Compound 123]
// result M

###

Listed below: IC50 values for each entry.
# Test system: L1210
# protocolNotes: cells
# Assay type: cell-based, mouse
# details: Table 2
# Protocol: A population of cells (>1×10^6 cells/mL as determined with a hemocytometer) was diluted with Dulbecco's Modified Eagle Medium (DMEM, Gibco) containing 10% fetal bovine serum (FBS, Gibco) to give a final concentration of 30,000 cells/mL. To each well of a 96-well plate (Corning® Costar®) was added 100 μL of the cell media solution with a multichannel pipet. The test compounds were then added to the plate as follows: test compounds were diluted in DMSO to a concentration of 1 mM. […]
Give a bare numeral; the unit nM is implied.

Example molecules with recorded IC50:
molecule	measuredParameter	observedMeasurement
CCOc1ccc(C(=O)NC2(CC)CC3CN(CCc4c([nH]c5ccccc45)C(C(=O)OC)(c4cc5c(cc4OC)N(C)C4C(O)(C(=O)OC)C(OC(C)=O)C6(CC)C=CCN7CCC54C76)C3)C2)cc1 (stereo not shown) [Compound 72]	IC50	0.6
CCC1(NC(=O)c2ccc(NC(C)=O)cc2)CC2CN(CCc3c([nH]c4ccccc34)C(C(=O)OC)(c3cc4c(cc3OC)N(C)C3C(O)(C(=O)OC)C(OC(C)=O)C5(CC)C=CCN6CCC43C65)C2)C1 (stereo not shown) [Compound 58]	IC50	1.6
CCC1(NC(=O)c2ccc(C#N)c(C)c2)CC2CN(CCc3c([nH]c4ccccc34)C(C(=O)OC)(c3cc4c(cc3OC)N(C)C3C(O)(C(=O)OC)C(OC(C)=O)C5(CC)C=CCN6CCC43C65)C2)C1 (stereo not shown) [Compound 55]	IC50	4.8

Switching to the query record.
// query State the recorded IC50 for this entry: CC[C@]1(NC(=O)c2ccc(N(C)C(=O)OC(C)(C)C)cc2)C[C@H]2CN(CCc3c([nH]c4ccccc34)[C@@](C(=O)OC)(c3cc4c(cc3OC)N(C)[C@H]3[C@@](O)(C(=O)OC)[C@H](OC(C)=O)[C@]5(CC)C=CCN6CC[C@]43[C@@H]65)C2)C1 [Compound 63]
// result 4.1

Data credit: patent US10689381B2
